Data origin: patent US20230235004A1

Target: T1, recombinant mouse MAdCAM-1 (mouse, UniProt Q61826 22-364, limits assumed)
T1 construct: also called mMAdCAM-1
T1 sequence (looked up): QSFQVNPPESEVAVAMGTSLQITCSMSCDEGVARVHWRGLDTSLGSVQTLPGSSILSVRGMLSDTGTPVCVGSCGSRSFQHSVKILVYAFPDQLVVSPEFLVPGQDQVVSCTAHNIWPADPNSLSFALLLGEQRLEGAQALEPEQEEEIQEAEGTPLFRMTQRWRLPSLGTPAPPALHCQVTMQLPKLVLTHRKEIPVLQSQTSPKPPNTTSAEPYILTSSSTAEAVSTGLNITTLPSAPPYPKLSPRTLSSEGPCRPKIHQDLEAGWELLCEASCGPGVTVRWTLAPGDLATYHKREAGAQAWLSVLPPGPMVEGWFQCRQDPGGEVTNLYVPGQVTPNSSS
Assay: Octet
recorded_endpoint: binding result

Previously resolved entries follow.
- binder: "MAdCAM Antibody Table 2 clone 46 (antibody, V domains shown, IgG format) VH: EVQLLESGGGLVQPGGSLRLSCAASGFSFSSYTMNWVRQAPGKGLEWVSFITSSSRTIYYADSVKGRFTISRDNSKNTLYLQMNSLRAEDTAVYYCARDRRGDYGDSWYFDLWGRGTLVTVSS VL: EIVMTQSPATLSVSPGERATLSCRASQSVRNYLAWYQQKPGQAPRLLIYGASTRATGIPARFSGSGSGTEFTLTISSLQSEDFAVYYCQQYGSSPLTFGGGTKVEIK"
  binding result: "no binding"
- binder: "MAdCAM Antibody Table 2 clone 6 (antibody, V domains shown, IgG format) VH: EVQLLESGGGLVQPGGSLRLSCAASGFTFNNYAFHWVRQAPGKGLEWVSRINSYGTSTTYADSVKGRFTISRDNSKNTLYLQMNSLRAEDTAVYYCAREGPVAGYWYFDLWGQGTLVTVSS VL: DIQMTQSPSSLSASVGDRVTITCRASQIIGTNLAWYQQKPGKAPKLLIYGASSLQSGVPSRFSGSGSGTDFTLTISSLQPEDFATYYCQQSYRLPFTFGQGTKVEIK"
  binding result: "no binding"
- binder: "MAdCAM Antibody Table 2 clone 20 (antibody, V domains shown, IgG format) VH: EVQLLESGGGLVQPGGSLRLSCAASGFTFSDSAMHWVRQAPGKGLEWVSAISGSGSTIYYADSVKGRFTISRDNSKNTLYLQMNSLRAEDTAVYYCVSDIAVAGHWYFDLWGRGTLVTVSS VL: DIQMTQSPSSLSASVGDRVTITCRASQSISTFLNWYQQKPGKAPKLLIYAASRLEGGVPSRFSGSGSGTDFTLTISSLQPEDFATYYCQQANSFPLTFGPGTKVDIK"
  binding result: "no binding"
- binder: "MAdCAM Antibody Table 2 clone 8 (antibody, V domains shown, IgG format) VH: QVQLVQSGAEVKKPGASVKVSCKASGYTFTGYHIHWVRQAPGQGLEWMGIINPSGGSTIYAQKFQGRVTMTRDTSTSTVYMELSSLRSEDTAVYYCAKDWSSWYLGPFDYWGQGTLVTVSS VL: DIQMTQSPSSLSASVGDRVTITCRASQNISSSLNWYQQKPGKAPKLLIYAASSLQSGVPSRFSGSGSGTDFTLTISSLQPEDFATYYCQQSYTTPYTFGQGTKVEIK"
  binding result: "binds"

From here, focus on the item given below.
Exercise: Would you mind telling me what binding result value was observed for MAdCAM Antibody Table 2 clone 7 (antibody, V domains shown, IgG format) VH: EVQLLESGGGLVQPGGSLRLSCAASGFTFSDYQMSWVRQAPGKGLEWVAIISHADGGFKDYADSVKGRFTISRDNSKNTLYLQMNSLRAEDTAVYYCAKPYSSGWSAVYYFDYWGQGTLVTVSS VL: DIQMTQSPSSLSASVGDRVTITCRASRGITNDLGWYQQKPGKAPKLLIYAASTLQSGVPSRFSGSGSGTDFTLTISSLQPEDFATYYCQQAYSFPWTFGQGTKVEIK ?
Solution: binds
